- TEST_DESCRIPTION: in vitro
- SETUP_CONDITIONS: human, % viability, WI38, 1.6uM (log conc. 0.19)
MEASURED_QUANTITY: viability at 1.6 µM (%)
Numbers only here, please. The scale is %.

// query Return reported viability at 1.6 µM; argument: CN[C@@H]1C[C@H]2O[C@@](C)([C@@H]1OC)n1c3ccccc3c3c4c(c5c6ccccc6n2c5c31)C(=O)NC4 [Staurosporine, reference compound]
// result 68.1

---

- Test system: NCI 60 cancer cell lines
- TEST_DESCRIPTION: NCI anticancer screening over a panel of 60 cancer cells, single concentration 10 µM
- Format: cell-based, human
- SETUP_CONDITIONS: Homo sapiens, ACHN, Renal cancer ACHN, 10 μM; read-out: Growth inhibition (GI %)
MEASURED_QUANTITY: inhibition at 10 µM (%)
Numbers only here, please. The scale is %.

// query Return reported inhibition at 10 µM; argument: CC(=O)c1cnn(-c2cc(=O)[nH]c3ccc(Cl)cc23)c1C [Compound 2d]
// result 7.6

// query What about CC(=O)c1cnn(-c2cc(=O)[nH]c3ccccc23)c1C [Compound 2a] ?
// result 7.82

---

- TEST_DESCRIPTION: MTT cytotoxicity on normal cell line WI-38
- SETUP_CONDITIONS: human, WI-38 normal cells, % viability, WI38, 0.4uM (log conc. -0.41)
Exercise: state measured viability at 24 h, 0.4 µM for each of the compounds provided.
Numbers only here, please. The scale is %.

// query Return reported viability at 24 h, 0.4 µM; argument: C/C(=N\Nc1ccc(S(N)(=O)=O)cc1)c1cnn(-c2cc(=O)[nH]c3ccc(Br)cc23)c1C [Compound 4e]
// result 83.2

// query What about C/C(=N\Nc1ccc(S(N)(=O)=O)cc1)c1cnn(-c2cc(=O)[nH]c3ccc(Cl)cc23)c1C [Compound 4d] ?
// result 80.9

// query What about C/C(=N\Nc1ccc(C(=O)O)cc1)c1cnn(-c2cc(=O)[nH]c3ccc(C)cc23)c1C [Compound 4g] ?
// result 80.4

// query What about C/C(=N\Nc1ccc(C(=O)O)cc1)c1cnn(-c2cc(=O)[nH]c3ccccc23)c1C [Compound 4f] ?
// result 80

---

- Tested on: NCI 60 cancer cell lines
- TEST_DESCRIPTION: NCI anticancer screening over a panel of 60 cancer cells, single concentration 10 µM
- Assay type: cell-based, human
- SETUP_CONDITIONS: Homo sapiens, SF-295, CNS Cancer SF-295, 10 μM; read-out: % Growth Inhibition (GI %)
Decision: inhibition at 10 µM compared against 10%; not below it gives Y, below it gives N.

// query API: above_or_equal(metric=inhibition at 10 µM, cutoff=10%) for item C/C(=N\Nc1ccc(S(N)(=O)=O)cc1)c1cnn(-c2cc(=O)[nH]c3ccc(Cl)cc23)c1C
// result N

// query What about COc1ccc2[nH]c(=O)cc(-n3ncc(/C(C)=N/Nc4ccc(C(=O)O)cc4)c3C)c2c1 ?
// result N

// query What about C/C(=N\Nc1ccc(C(=O)O)cc1)c1cnn(-c2cc(=O)[nH]c3ccc(Br)cc23)c1C ?
// result N

// query What about C/C(=N\Nc1ccc(S(N)(=O)=O)cc1)c1cnn(-c2cc(=O)[nH]c3ccc(Br)cc23)c1C ?
// result N

// query What about C/C(=N\Nc1ccc(C(=O)O)cc1)c1cnn(-c2cc(=O)[nH]c3ccc(Cl)cc23)c1C ?
// result N

// query What about C/C(=N\Nc1ccc(S(N)(=O)=O)cc1)c1cnn(-c2cc(=O)[nH]c3ccccc23)c1C ?
// result N

// query What about C/C(=N\Nc1ccc(C(=O)O)cc1)c1cnn(-c2cc(=O)[nH]c3ccccc23)c1C ?
// result N

// query What about COc1ccc2[nH]c(=O)cc(-n3ncc(/C(C)=N/Nc4ccc(S(N)(=O)=O)cc4)c3C)c2c1 ?
// result Y

// query What about C/C(=N\Nc1ccc(S(N)(=O)=O)cc1)c1cnn(-c2cc(=O)[nH]c3ccc(C)cc23)c1C ?
// result Y

---

Exercise: state measured inhibition at 10 µM for each of the compounds provided.
- System: NCI 60 cancer cell lines
- TEST_DESCRIPTION: NCI anticancer screening over a panel of 60 cancer cells, single concentration 10 µM
- Format: cell-based, human
- SETUP_CONDITIONS: Homo sapiens, UACC-257, Melanoma UACC-257, 10 μM; read-out: % Growth Inhibition (GI %)

// query Return reported inhibition at 10 µM; argument: C/C(=N\Nc1ccc(C(=O)O)cc1)c1cnn(-c2cc(=O)[nH]c3ccc(Cl)cc23)c1C
// result < 5%

// query What about COc1ccc2[nH]c(=O)cc(-n3ncc(/C(C)=N/Nc4ccc(C(=O)O)cc4)c3C)c2c1 ?
// result < 5%

// query What about C/C(=N\Nc1ccc(S(N)(=O)=O)cc1)c1cnn(-c2cc(=O)[nH]c3ccc(C)cc23)c1C ?
// result < 5%

// query What about C/C(=N\Nc1ccc(C(=O)O)cc1)c1cnn(-c2cc(=O)[nH]c3ccc(C)cc23)c1C ?
// result < 5%

// query What about C/C(=N\Nc1ccc(S(N)(=O)=O)cc1)c1cnn(-c2cc(=O)[nH]c3ccccc23)c1C ?
// result < 5%

// query What about C/C(=N\Nc1ccc(S(N)(=O)=O)cc1)c1cnn(-c2cc(=O)[nH]c3ccc(Cl)cc23)c1C ?
// result 4.52%

// query What about C/C(=N\Nc1ccc(C(=O)O)cc1)c1cnn(-c2cc(=O)[nH]c3ccc(Br)cc23)c1C ?
// result < 5%

// query What about C/C(=N\Nc1ccc(C(=O)O)cc1)c1cnn(-c2cc(=O)[nH]c3ccccc23)c1C ?
// result < 5%

// query What about COc1ccc2[nH]c(=O)cc(-n3ncc(/C(C)=N/Nc4ccc(S(N)(=O)=O)cc4)c3C)c2c1 ?
// result < 5%

// query What about C/C(=N\Nc1ccc(S(N)(=O)=O)cc1)c1cnn(-c2cc(=O)[nH]c3ccc(Br)cc23)c1C ?
// result 33.7%

---

- Test system: NCI 60 cancer cell lines
- TEST_DESCRIPTION: NCI anticancer screening over a panel of 60 cancer cells, single concentration 10 µM
- Format: cell-based, human
- SETUP_CONDITIONS: Homo sapiens, CAKI-1, Renal cancer CAKI-1, 10 μM; read-out: % Growth Inhibition (GI %)
Exercise: state measured inhibition at 10 µM for each of the compounds provided.

// query Return reported inhibition at 10 µM; argument: C/C(=N\Nc1ccc(S(N)(=O)=O)cc1)c1cnn(-c2cc(=O)[nH]c3ccc(C)cc23)c1C [Compound 4b]
// result 5.35%

// query What about C/C(=N\Nc1ccc(S(N)(=O)=O)cc1)c1cnn(-c2cc(=O)[nH]c3ccc(Br)cc23)c1C [Compound 4e] ?
// result 23.3%

// query What about C/C(=N\Nc1ccc(C(=O)O)cc1)c1cnn(-c2cc(=O)[nH]c3ccc(Br)cc23)c1C [Compound 4j] ?
// result 14.7%

// query What about COc1ccc2[nH]c(=O)cc(-n3ncc(/C(C)=N/Nc4ccc(C(=O)O)cc4)c3C)c2c1 [Compound 4h] ?
// result < 5%

// query What about COc1ccc2[nH]c(=O)cc(-n3ncc(/C(C)=N/Nc4ccc(S(N)(=O)=O)cc4)c3C)c2c1 [Compound 4c] ?
// result < 5%

// query What about C/C(=N\Nc1ccc(C(=O)O)cc1)c1cnn(-c2cc(=O)[nH]c3ccc(C)cc23)c1C [Compound 4g] ?
// result 10.3%

// query What about C/C(=N\Nc1ccc(C(=O)O)cc1)c1cnn(-c2cc(=O)[nH]c3ccccc23)c1C [Compound 4f] ?
// result 16.1%

// query What about C/C(=N\Nc1ccc(C(=O)O)cc1)c1cnn(-c2cc(=O)[nH]c3ccc(Cl)cc23)c1C [Compound 4i] ?
// result 10.8%

// query What about C/C(=N\Nc1ccc(S(N)(=O)=O)cc1)c1cnn(-c2cc(=O)[nH]c3ccccc23)c1C [Compound 4a] ?
// result 5.51%

// query What about C/C(=N\Nc1ccc(S(N)(=O)=O)cc1)c1cnn(-c2cc(=O)[nH]c3ccc(Cl)cc23)c1C [Compound 4d] ?
// result 21.5%

---

- Tested on: leukemia (MOLT-4) cell line
- TEST_DESCRIPTION: MTT antiproliferative assay, MOLT-4
- Type: cell-based, human
- SETUP_CONDITIONS: MTT; read-out: Antiproliferative activity IC50 ± SEM, MOLT-4
MEASURED_QUANTITY: pIC50
Please keep in mind that pIC50 is minus log10 of the molar concentration; only the number is needed.

// query Lab request: please report pIC50 under test system leukemia (MOLT-4) cell line for C/C(=N\Nc1ccc(S(N)(=O)=O)cc1)c1cnn(-c2cc(=O)[nH]c3ccc(Br)cc23)c1C [Compound 4e]
// result 5.10
